B1: LCOR (parent)
chain: PCAGSTSLSHSPGCSSTQGNGRPG

Variants of: B1
Procedure summary: protein stability index of a GFP-peptide fusion (GPS, HEK-293T) (PSI 1-6); higher = more stable;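 note: lentivirally expressed fusions sorted by FACS into six bins by GFP to DsRed ratio, PSI derived from sequencing read proportions per bin multiplied by bin number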
Measurement conditions: c terminus: a fixed tail appended
Rule: 1 for protein stability index not less than 3, -1 for anything less.

Please review the entries below; each comes with its answer.
>>> group_label("C14L")
1
>>> group_label("A3L")
1

Say whether C14T shows protein stability index of 3 or more.
1

Reported protein stability index at or above 3? T6K
-1

Check the entry S7N : does protein stability index equal or exceed 3?
1
